Lysophosphatidic acid receptor 3 (Homo sapiens, UniProt Q9UBY5) data, read-out pIC50
Sequence (Q9UBY5 whole entry): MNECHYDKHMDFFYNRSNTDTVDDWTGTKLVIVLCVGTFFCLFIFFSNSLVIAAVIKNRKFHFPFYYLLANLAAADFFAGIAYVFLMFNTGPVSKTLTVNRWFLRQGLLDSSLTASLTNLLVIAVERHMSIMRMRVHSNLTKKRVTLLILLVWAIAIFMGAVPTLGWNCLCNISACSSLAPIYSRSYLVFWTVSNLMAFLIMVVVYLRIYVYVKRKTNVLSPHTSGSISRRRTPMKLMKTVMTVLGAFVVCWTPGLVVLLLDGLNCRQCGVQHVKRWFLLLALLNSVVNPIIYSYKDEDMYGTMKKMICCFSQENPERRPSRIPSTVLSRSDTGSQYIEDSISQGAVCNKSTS
pIC50 field: float, defined as -log10 of concentration (mol/L).

These recorded examples may help you get a feel for the data.
compound=CCCCCCCC/C=C\CCCCCCCC(=O)N[C@@H](COP(=O)(O)O)Cc1ccc(OCc2cccnc2)cc1 assayed_target="Lysophosphatidic acid receptor 3 (Homo sapiens, UniProt Q9UBY5)" measured_result=5.77
compound=CCCCCCCC/C=C\CCCCCCCC(=O)N[C@H](COP(=O)(O)O)Cc1ccc(OCc2ccccn2)cc1 assayed_target="Lysophosphatidic acid receptor 3 (Homo sapiens, UniProt Q9UBY5)" measured_result=6.03
compound=CCCCCCCC/C=C\CCCCCCCC(=O)N[C@@H](COP(=O)(O)O)Cc1ccc(OCc2ncc(C)c(OC)c2C)cc1 assayed_target="Lysophosphatidic acid receptor 3 (Homo sapiens, UniProt Q9UBY5)" measured_result=7.41
compound=CCCCCCCC/C=C\CCCCCCCC(=O)N[C@@H](COP(=O)(O)O)Cc1ccc(OCc2cc(OC)ccn2)cc1 assayed_target="Lysophosphatidic acid receptor 3 (Homo sapiens, UniProt Q9UBY5)" measured_result=6.99
compound=CCCCCCCC/C=C\CCCCCCCC(=O)N[C@@H](COP(=O)(O)O)Cc1ccc(OCc2cc(OCC(F)(F)F)ccn2)cc1 assayed_target="Lysophosphatidic acid receptor 3 (Homo sapiens, UniProt Q9UBY5)" measured_result=7.32
compound=CCCCCCCC/C=C\CCCCCCCC(=O)N[C@@H](COP(=O)(O)O)Cc1ccc(OCc2cc(OCCC)ccn2)cc1 assayed_target="Lysophosphatidic acid receptor 3 (Homo sapiens, UniProt Q9UBY5)" measured_result=5.78
compound=CCCCCCCC/C=C\CCCCCCCC(=O)N[C@H](COP(=O)(O)O)Cc1ccc(OCc2cc(OC)c3ccccc3n2)cc1 assayed_target="Lysophosphatidic acid receptor 3 (Homo sapiens, UniProt Q9UBY5)" measured_result=5.59

Turning to the following compound.
Item: CCCCCCCC/C=C\CCCCCCCC(=O)N[C@@H](Cc1ccc(OCc2ccccc2)cc1)CC(O)P(=O)(O)O (stereo partly drawn) Test system: Lysophosphatidic acid receptor 3 (Homo sapiens, UniProt Q9UBY5) Read-out: pIC50 Value: ?
6.63
